MIC80 for assorted molecules
- Tested on: Aspergillus fumigatus
- experimentNotes: Antifungal activity against Aspergillus fumigatus cgmcc 3.7795 assessed as inhibition of fungal growth by CLSI M27-A3 guidelines based method
- Format: functional
readout: MIC80 (µg/mL)

INSERT INTO results (molecule, endpointresult) VALUES
  ('C[C@@H](N(C)Cc1ccc(C#Cc2ccc(Br)cc2)cc1)[C@](O)(Cn1cncn1)c1ccc(F)cc1F', 0.1),
  ('CC(=O)c1ccc(C#Cc2ccc(CN(C)[C@H](C)[C@](O)(Cn3cncn3)c3ccc(F)cc3F)cc2)cc1', 0.1),
  ('C[C@@H](N(C)Cc1ccc(C#Cc2ccc(F)c(F)c2)cc1)[C@](O)(Cn1cncn1)c1ccc(F)cc1F', 0.1),
  ('C[C@@H](N(C)Cc1ccc(C#Cc2ccc(F)cc2)cc1)[C@](O)(Cn1cncn1)c1ccc(F)cc1F', 0.1),
  ('OC(Cn1cncn1)(Cn1cncn1)c1ccc(F)cc1F [FLUCONAZOLE]', 64),
  ('C[C@@H](N(C)Cc1ccc(C#Cc2ccc(F)cc2F)cc1)[C@](O)(Cn1cncn1)c1ccc(F)cc1F', 0.05);
